Entries and their TGI values follow.
# Tested on: SR leukemia
# assaySummary: NCI tumour cell line growth inhibition, 48 h

# molecule, assayedTarget, TGI
measured = [
    ("Cc1ccccc1NC(=O)C1C(=O)N(c2ccccc2C)C(=O)/C1=N\\N (stereo unspecified)", "SR leukemia", "> 100 µM"),
    ("CC1=CC2=C(C(N)=O)C(=O)OC2(C)C(c2ccccc2)C1 (stereo unspecified)", "SR leukemia", "> 100 µM"),
    ("Cc1ccccc1-c1c(N)nc(N)nc1C(=O)Nc1nccs1", "SR leukemia", "> 100 µM"),
    ("ClC1=NC(Cl)C(Cl)=N/C1=N\\c1ncn[nH]1 (stereo unspecified)", "SR leukemia", "3.63 µM"),
    ("CC#Cc1cc2c(cc1O)CC[C@@H]1[C@@H]2CC[C@]2(C)[C@@H](O)CC[C@@H]12", "SR leukemia", "25.7 µM"),
    ("CN1CCCC1=NC#N", "SR leukemia", "> 100 µM"),
]
